Below: a set of entries, each annotated with reported Kd.
system_under_test: T1, recombinant cynomolgus C1r2s2 tetramer (cynomolgus monkey, limits assumed)
T1 construct: also called cyC1r2s2; monkey C1r2s2
T1 chain 1: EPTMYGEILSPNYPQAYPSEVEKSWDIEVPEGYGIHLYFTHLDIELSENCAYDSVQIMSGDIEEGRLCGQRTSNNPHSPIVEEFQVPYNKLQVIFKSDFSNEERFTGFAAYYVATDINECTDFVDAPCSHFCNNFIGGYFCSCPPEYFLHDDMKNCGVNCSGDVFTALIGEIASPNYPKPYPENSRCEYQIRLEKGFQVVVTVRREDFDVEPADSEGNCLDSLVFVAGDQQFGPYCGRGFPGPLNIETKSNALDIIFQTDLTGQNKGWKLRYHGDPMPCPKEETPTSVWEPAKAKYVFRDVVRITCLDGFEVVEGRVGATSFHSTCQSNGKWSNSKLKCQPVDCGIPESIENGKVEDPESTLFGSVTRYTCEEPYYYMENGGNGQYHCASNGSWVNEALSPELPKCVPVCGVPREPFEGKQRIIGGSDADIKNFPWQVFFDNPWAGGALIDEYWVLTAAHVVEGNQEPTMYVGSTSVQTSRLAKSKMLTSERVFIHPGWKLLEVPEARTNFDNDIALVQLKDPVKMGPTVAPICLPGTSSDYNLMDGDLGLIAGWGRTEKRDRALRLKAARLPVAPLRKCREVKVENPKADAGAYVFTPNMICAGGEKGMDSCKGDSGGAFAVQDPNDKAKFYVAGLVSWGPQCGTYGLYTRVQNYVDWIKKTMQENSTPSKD
T1 chain 2: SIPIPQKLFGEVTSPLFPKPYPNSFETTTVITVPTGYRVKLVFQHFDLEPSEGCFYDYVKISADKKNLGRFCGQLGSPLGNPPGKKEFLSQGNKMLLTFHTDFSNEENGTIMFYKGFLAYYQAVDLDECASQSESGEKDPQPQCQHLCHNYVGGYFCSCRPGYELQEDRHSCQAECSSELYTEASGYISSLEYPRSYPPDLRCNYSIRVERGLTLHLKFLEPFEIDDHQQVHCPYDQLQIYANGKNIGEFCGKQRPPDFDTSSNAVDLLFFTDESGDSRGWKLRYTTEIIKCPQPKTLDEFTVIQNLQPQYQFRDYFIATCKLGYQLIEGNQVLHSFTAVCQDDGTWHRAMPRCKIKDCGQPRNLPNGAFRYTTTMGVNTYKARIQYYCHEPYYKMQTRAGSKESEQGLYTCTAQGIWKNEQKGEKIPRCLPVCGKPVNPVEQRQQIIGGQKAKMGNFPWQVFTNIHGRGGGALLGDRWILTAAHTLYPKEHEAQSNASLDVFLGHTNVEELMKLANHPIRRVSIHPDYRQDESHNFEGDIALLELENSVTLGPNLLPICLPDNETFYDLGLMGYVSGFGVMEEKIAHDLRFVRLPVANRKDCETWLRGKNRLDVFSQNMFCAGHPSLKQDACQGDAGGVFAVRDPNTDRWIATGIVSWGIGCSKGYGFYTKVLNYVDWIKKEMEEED
method_summary: SPR (Biacore T200), 37 C, pH 6.0; cyC1r2s2 captured by IPN009, antibody as analyte
property: Kd (nM)

binder	property	meas_value
COS0637pHv23-G1A3FcgSil+LowpI (antibody, V domains shown, VH 28, VL 51, CH 45, CL 23) VH: QVQLVESGGGVVQPGRSLRLSCAASGFTFSAYAMNWIRQPPGKGLEWIGLIYGTGHEFYASWAEERVTISVDTSKNQFSLKLSSVTAADTAVYYCARGRSKNYNSDFHIWGQGTLVTVSS VL: DIQMTQSPSSLSASVGDRVTITCQAHEILHDKKNLAWYQQKPGQPPKLLIYSASILESGVPSRFSGSGSGTDFTLTISSLQPEDFATYYCHGEFSHGSADLNHFGQGTKVEIKR	Kd	46.3
COS0637pHv21-G1A3FcgSil+LowpI (antibody, V domains shown, VH 24, VL 47, CH 45, CL 23) VH: QVQLVESGGGVVQPGRSLRLSCAASGFTFSAYAMNWIRQPPGKGLEWIGLIYGSGHEFYASWAEERVTISVDTSKNQFSLKLSSVTAADTAVYYCARGRSKNYNSDFHLWGQGTLVTVSS VL: DIQMTQSPSSLSASVGDRVTITCQAHEILHDKKNLAWYQQKPGQPPKLLIYSASILESGVPSRFSGSGSGTDFTLTISSLQPEDFATYYCHGEFSHGSGDLNHFGQGTKVEIKR	Kd	62.9
COS0637pHv15-G1A3FcgSil+LowpI (antibody, V domains shown, VH 24, VL 59, CH 45 (G1A3FcgSil+LowpI), CL 23) VH: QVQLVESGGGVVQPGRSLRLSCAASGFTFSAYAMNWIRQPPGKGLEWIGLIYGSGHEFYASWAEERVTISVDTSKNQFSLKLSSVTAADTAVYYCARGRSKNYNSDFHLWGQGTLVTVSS VL: DIQMTQSPSSLSASVGDRVTITCQANEILHDKKNLAWYQQKPGQPPKLLIYGASTLESGVPSRFSGSGSGTDFTLTISSLQPEDFATYYCHGEFSYHSADLNTFGQGTKVEIKR	Kd	111
COS0637pHv25-G1A3FcgSil+LowpI (antibody, V domains shown, VH 32, VL 55, CH 45, CL 23) VH: QVQLVESGGGVVQPGRSLRLSCAASGFTFSAYAMNWIRQPPGKGLEWIGLMYGSGHEFYASWAEERVTISVDTSKNQFSLKLSSVTAADTAVYYCARGRSKNYNSDFHLWGQGTLVTVSS VL: DIQMTQSPSSLSASVGDRVTITCQAHEILHDKKNLAWYQQKPGQPPKLLIYGASQRESGVPSRFSGSGSGTDFTLTISSLQPEDFATYYCHGEFPHSSADLNHFGQGTKVEIKR	Kd	67.1
